- system-tested: enkephalin (δ) receptor (Mus musculus)
- Sequence (P32300 whole entry): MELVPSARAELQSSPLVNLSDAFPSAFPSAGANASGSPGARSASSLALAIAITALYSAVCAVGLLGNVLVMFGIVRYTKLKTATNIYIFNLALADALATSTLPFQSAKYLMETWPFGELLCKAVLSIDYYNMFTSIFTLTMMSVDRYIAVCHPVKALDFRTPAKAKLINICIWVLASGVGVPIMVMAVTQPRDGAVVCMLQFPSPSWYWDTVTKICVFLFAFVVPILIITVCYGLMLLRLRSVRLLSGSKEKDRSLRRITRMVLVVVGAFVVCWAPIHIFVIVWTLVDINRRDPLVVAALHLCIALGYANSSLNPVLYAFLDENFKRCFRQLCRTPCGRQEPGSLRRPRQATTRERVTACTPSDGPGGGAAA
- experiment-description: mouse vas deferens assay
- run-conditions: concentration causing depression of 50% of the electrically evoked contraction; field stimulation 0.15 Hz, 1 msec., 40 V; 37° C.
- Experimental: In the mouse vas deferens test, single mouse vas deferens from mature mice (Cox, 30-40 g.) are suspended in 3 ml. of modified Kreb's solution aerated with 95% O2 -5% CO2 and maintained at 37° C. The twitch induced by field stimulation (0.15 Hz, 1 msec., 40 V) is recorded on a polygraph via an isometric transducer. The test compound is added to the bath in 20 to 30 μl. aliquots. A dose-response curve is constructed by cumulative addition of appropriate amounts of the compound to the bath. […]
pIC50: −log10 of the molar value.
recorded-endpoint: pIC50

INSERT INTO assay_data (compound, system_tested, recorded_endpoint, quantitative_result) VALUES
  ('CSCC[C@@H](C(N)=O)N(C)C(=O)[C@H](Cc1cccc(I)c1)NC(=O)CNC(=O)[C@@H](C)NC(=O)[C@@H](N)Cc1ccc(O)cc1 [I]', 'enkephalin (δ) receptor (Mus musculus)', 'pIC50', 8.68),
  ('CSCC[C@@H](C(N)=O)N(C)C(=O)[C@H](Cc1ccccc1)NC(=O)CNC(=O)[C@@H](C)NC(=O)[C@@H](N)Cc1ccc(O)cc1 [H, reference compound]', 'enkephalin (δ) receptor (Mus musculus)', 'pIC50', 7.91),
  ('CSCC[C@@H](C(N)=O)N(C)C(=O)[C@H](Cc1cccc(C(F)(F)F)c1)NC(=O)CNC(=O)[C@@H](C)NC(=O)[C@@H](N)Cc1ccc(O)cc1 [CF3]', 'enkephalin (δ) receptor (Mus musculus)', 'pIC50', 8.75),
  ('COc1cccc(C[C@H](NC(=O)CNC(=O)[C@@H](C)NC(=O)[C@@H](N)Cc2ccc(O)cc2)C(=O)N(C)[C@@H](CCSC)C(N)=O)c1 [OMe]', 'enkephalin (δ) receptor (Mus musculus)', 'pIC50', 8.53),
  ('CSCC[C@@H](C(N)=O)N(C)C(=O)[C@H](Cc1cccc(Br)c1)NC(=O)CNC(=O)[C@@H](C)NC(=O)[C@@H](N)Cc1ccc(O)cc1 [Br]', 'enkephalin (δ) receptor (Mus musculus)', 'pIC50', 9.31),
  ('CSCC[C@@H](C(N)=O)N(C)C(=O)[C@H](Cc1cccc(C)c1)NC(=O)CNC(=O)[C@@H](C)NC(=O)[C@@H](N)Cc1ccc(O)cc1 [CH3]', 'enkephalin (δ) receptor (Mus musculus)', 'pIC50', 8.56),
  ('CSCC[C@@H](C(N)=O)N(C)C(=O)[C@H](Cc1cccc(Cl)c1)NC(=O)CNC(=O)[C@@H](C)NC(=O)[C@@H](N)Cc1ccc(O)cc1 [Cl]', 'enkephalin (δ) receptor (Mus musculus)', 'pIC50', 9.15);

meta.source: patent US4322339A
